Test Target: CDK2/CycA2 (Homo sapiens, UniProt P24941)
Assay Overview: ADP-Glo kinase assay on CDK enzymatic activity, CDK2/CycA2
Format: biochemical
Condition Parameters: 10 concentrations from 10 μM, 4-fold, 60 min room temperature
Observed Property: IC50 (nM)

[[record]]
compound = "N#Cc1cc2cnc(N[C@H]3C[C@H](N)C3)nc2c(N[C@@H]2CCOC2)n1 [Compound C13]"
data_value = 85

[[record]]
compound = "CN[C@H]1C[C@H](Nc2ncc3cc(C#N)nc(NC(C)C)c3n2)C1 [Compound C20]"
data_value = 18

[[record]]
compound = "CC(C)Nc1nc(C#N)cc2cnc(N[C@H]3C[C@H](N(C)C)C3)nc12 [Compound C24]"
data_value = 115

[[record]]
compound = "CC(C)CNc1nc(C#N)cc2cnc(N[C@H]3C[C@H](N)C3)nc12 [Compound C25]"
data_value = 34


A = COC[C@@H](C)Nc1nc(C#N)cc2cnc(N[C@H]3C[C@H](N)C3)nc12 [Compound C41]
B = N#Cc1cc2cnc(N[C@H]3C[C@@H](N)C3)cc2c(N[C@@H]2CCOC2)n1 [Compound 174]
C = CC(C)Nc1nc(C#N)cc2cnc(N[C@H]3C[C@](C)(N)C3)cc12 [Compound 209]
D = N#Cc1cc2cnc(N[C@H]3CC[C@H](N)C3)cc2c(NCC2(C#N)CCOCC2)n1 [Compound 60]
Reorder: IC50, max to min. Output spec: labels arranged per the requested ranking.
D, B, C, A

====

Test Target: CDK2/CycA2 (Homo sapiens, UniProt P24941)
Assay Overview: ADP-Glo kinase assay on CDK enzymatic activity, CDK2/CycA2
Type: biochemical
Condition Parameters: 10 concentrations from 10 μM, 4-fold, 60 min room temperature
Observed Property: IC50 (nM)

I = N#Cc1cc2cnc(N[C@H]3C[C@H](N)C3)nc2c(NC2CCOCC2)n1
II = CC(C)(C)Nc1nc(C#N)cc2cnc(N[C@H]3CCCNC3)nc12
III = CC(C)Nc1nc(C(F)F)cc2cnc(Nc3cc(CS(C)(=N)=O)ccn3)cc12 (stereo not drawn)
Can you order these entries from above by IC50? Start with the largest number and work down. Output spec: labels arranged per the requested ranking.
II, I, III

I = CC(C)Nc1nc(C#N)cc2cnc(N[C@H]3CC[C@H](C)NC3)cc12
II = CC(=O)N[C@H]1CC[C@H](Nc2ncc3cc(C#N)nc(NC(C)C)c3n2)C1
III = CC(C)Nc1nc(C#N)cc2cnc(N[C@@H]3CN4CCC3CC4)cc12
Reorder: IC50, max to min. Output spec: labels arranged per the requested ranking.
III, I, II
(III: 1170 nM, I: 167 nM, II: 33 nM)

a = CC1(Nc2nc(C#N)cc3cnc(N[C@H]4CCCNC4)cc23)CC1
b = CC(C)Nc1nc(C#N)cc2cnc(N[C@@H]3CC[C@@H](N)C3)cc12
Problem: Given the entries a and b , determine which has the lower reported IC50. Select an item and report its label.
b

====

Test Target: CDK1/CycE1 (Homo sapiens)
Sequence (P06493 whole entry, species assumed): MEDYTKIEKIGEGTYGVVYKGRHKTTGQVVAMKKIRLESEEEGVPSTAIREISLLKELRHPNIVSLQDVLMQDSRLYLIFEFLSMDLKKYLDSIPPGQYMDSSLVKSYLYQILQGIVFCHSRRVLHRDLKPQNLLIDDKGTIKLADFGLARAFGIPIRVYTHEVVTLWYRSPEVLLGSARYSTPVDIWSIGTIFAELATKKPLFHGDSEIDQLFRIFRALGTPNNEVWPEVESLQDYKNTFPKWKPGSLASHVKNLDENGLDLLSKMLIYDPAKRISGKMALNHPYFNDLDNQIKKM
Sequence (P24864 whole entry partner, species assumed): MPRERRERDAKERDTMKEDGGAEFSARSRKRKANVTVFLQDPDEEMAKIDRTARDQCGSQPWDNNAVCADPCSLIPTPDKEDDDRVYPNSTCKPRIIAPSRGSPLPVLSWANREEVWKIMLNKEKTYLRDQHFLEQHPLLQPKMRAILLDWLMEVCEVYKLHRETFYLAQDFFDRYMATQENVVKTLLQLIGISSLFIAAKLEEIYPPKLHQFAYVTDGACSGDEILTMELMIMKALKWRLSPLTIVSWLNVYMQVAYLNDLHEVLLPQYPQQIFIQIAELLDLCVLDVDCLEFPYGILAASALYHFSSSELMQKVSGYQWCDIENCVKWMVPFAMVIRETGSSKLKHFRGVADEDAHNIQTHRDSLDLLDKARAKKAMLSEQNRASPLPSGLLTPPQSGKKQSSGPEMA
Assay Overview: ADP-Glo kinase assay on CDK enzymatic activity, CDK1/CycE1
Format: biochemical
Condition Parameters: ADP-Glo; 10 concentrations from 10 μM, 4-fold; 60 min room temperature; read-out: CDK1/CycE1/nM (IC50)
Observed Property: IC50 (nM)

Example results:
[[record]]
record_smiles = "CCNc1nc(C#N)cc2cnc(N[C@H]3CCCNC3)cc12"
measurement_unit = "nM"
data_value = 336

[[record]]
record_smiles = "CC(C)Nc1nc(C#N)cc2cnc(N[C@H]3C[C@H](CO)C3)nc12"
measurement_unit = "nM"
data_value = 21

[[record]]
record_smiles = "CC(C)Nc1nc(C#N)cc2cnc(N[C@H]3CC[C@H](N(C)C)CC3)nc12"
measurement_unit = "nM"
data_value = 166

[[record]]
record_smiles = "N#Cc1cc2cnc(N[C@H]3CCCNC3)cc2c(N[C@H]2CCOC2)n1"
measurement_unit = "nM"
data_value = 411

[[record]]
record_smiles = "CC(C)Nc1nc(C#N)cc2cnc(N[C@H]3C[C@H](N4CCN(C)CC4)C3)nc12"
measurement_unit = "nM"
data_value = 218

[[record]]
record_smiles = "FC(F)c1cc2cnc(N[C@H]3CCCNC3)cc2c(N[C@@H]2CCOC2)n1"
measurement_unit = "nM"
data_value = 215

[[record]]
record_smiles = "CC(C)Nc1nc(C#N)cc2cnc(N[C@H]3CCC(=O)NC3)nc12"
measurement_unit = "nM"
data_value = 26


P = CC1(Nc2nc(C#N)cc3cnc(N[C@H]4CCCNC4)cc23)CC1
Q = N#Cc1cc2cnc(N[C@H]3CCCNC3)cc2c(NC2CC2)n1
Problem: Given the entries P and Q , determine which has the lower reported IC50. Select an item and report its label.
P

====

Test Target: CDK5/p25NCK (Homo sapiens, UniProt Q00535)
Sequence (Q00535 whole entry, species assumed): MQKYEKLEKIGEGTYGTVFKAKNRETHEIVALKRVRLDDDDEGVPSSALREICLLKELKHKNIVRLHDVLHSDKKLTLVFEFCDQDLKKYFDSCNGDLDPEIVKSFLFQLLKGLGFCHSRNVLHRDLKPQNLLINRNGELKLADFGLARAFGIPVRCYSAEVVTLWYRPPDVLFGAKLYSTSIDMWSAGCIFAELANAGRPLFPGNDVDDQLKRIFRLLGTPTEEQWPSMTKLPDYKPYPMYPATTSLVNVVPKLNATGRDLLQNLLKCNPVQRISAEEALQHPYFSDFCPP
Sequence (Q15078 99-307 partner limits assumed, species assumed): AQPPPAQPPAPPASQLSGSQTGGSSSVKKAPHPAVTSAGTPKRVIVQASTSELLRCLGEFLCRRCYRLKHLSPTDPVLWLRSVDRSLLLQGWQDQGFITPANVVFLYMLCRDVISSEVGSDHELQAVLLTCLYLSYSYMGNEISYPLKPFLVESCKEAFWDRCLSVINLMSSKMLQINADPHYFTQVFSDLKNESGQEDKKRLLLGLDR
Assay Overview: ADP-Glo kinase assay on CDK enzymatic activity, CDK5/p25NCK
Type: biochemical
Condition Parameters: 10 concentrations from 10 μM, 4-fold, 60 min room temperature
Observed Property: IC50 (nM)

Example results:
[[record]]
record_smiles = "CC(C)Nc1nc(C#N)cc2cnc(N[C@H]3CC[C@@H](O)C3)cc12"
observed_property = "IC50"
data_value = 7

[[record]]
record_smiles = "CC(C)(C)Nc1nc(C#N)cc2cnc(N[C@H]3CCCNC3)cc12"
observed_property = "IC50"
data_value = 295

[[record]]
record_smiles = "CC(C)Nc1nc(C#N)cc2cnc(N[C@H]3CC[C@H](N)C3)nc12"
observed_property = "IC50"
data_value = 153

[[record]]
record_smiles = "CC(C)Nc1nc(C#N)cc2cnc(N[C@@H]3CNCC[C@@H]3F)cc12"
observed_property = "IC50"
data_value = 3040


a = CC(C)Nc1nc(C#N)cc2cnc(N[C@H]3CCNC3)cc12
b = N#Cc1cc2cnc(N[C@H]3CCCNC3)cc2c(NC2CC2)n1
c = CC(C)Nc1nc(C#N)cc2cnc(NC34CC(N)(C3)C4)nc12
d = CC(C)Nc1nc(C#N)cc2cnc(N[C@@H]3CN[C@H](CO)C3)cc12
e = CC(C)Nc1nc(C#N)cc2cnc(N[C@H]3CC[C@H](N)CC3)nc12
Reorder: IC50, max to min. Output spec: labels arranged per the requested ranking.
a, d, b, e, c
(a: 1480 nM, d: 941 nM, b: 435 nM, e: 116 nM, c: 65 nM)

====

Test Target: CDK2/CycA2 (Homo sapiens)
Assay Overview: ADP-Glo kinase assay on CDK enzymatic activity, CDK2/CycA2
Format: biochemical
Condition Parameters: 10 concentrations from 10 μM, 4-fold, 60 min room temperature
Observed Property: IC50 (nM)

[[record]]
compound = "N#Cc1cc2cnc(N[C@H]3CCCNC3)cc2c(C2CCCCC2)n1 [Compound 193]"
observed_property = "IC50"
measurement_unit = "nM"
data_value = 679

[[record]]
compound = "CC(C)Nc1nc(C#N)cc2cnc(N[C@H]3C[C@H](CN)C3)nc12 [Compound C16]"
observed_property = "IC50"
measurement_unit = "nM"
data_value = 22

[[record]]
compound = "CC(C)(C)Nc1nc(C(F)F)cc2cnc(N[C@H]3C[C@H](O)C3)nc12 [Compound C8]"
observed_property = "IC50"
measurement_unit = "nM"
data_value = 5


I = N#Cc1cc2cnc(N[C@H]3CCCNC3)cc2c(N2CCCC2)n1 [Compound 169]
II = N#Cc1cc2cnc(N[C@H]3CCCNC3)cc2c(N[C@H](CO)c2ccccc2)n1 [Compound 104]
Problem: Given the entries I and II , determine which has the lower reported IC50. Select an item and report its label.
II
(II: 888 nM, I: 2210 nM)

====

Test Target: CDK5/p25NCK (Homo sapiens, UniProt Q00535)
Assay Overview: ADP-Glo kinase assay on CDK enzymatic activity, CDK5/p25NCK
Assay type: biochemical
Condition Parameters: 10 concentrations from 10 μM, 4-fold, 60 min room temperature
Observed Property: IC50 (nM)

[[record]]
record_smiles = "CC(=O)N[C@H]1CCC[C@H](C(=O)Nc2cc3c(NC(C)C)nc(C#N)cc3cn2)C1"
test_target = "CDK5/p25NCK (Homo sapiens, UniProt Q00535)"
observed_property = "IC50"
data_value = 1210

[[record]]
record_smiles = "CC(C)Nc1nc(C#N)cc2cnc(N[C@H]3CCCNCC3)nc12"
test_target = "CDK5/p25NCK (Homo sapiens, UniProt Q00535)"
observed_property = "IC50"
data_value = 1530

[[record]]
record_smiles = "CC(C)Nc1nc(C#N)cc2cnc(N[C@H]3C[C@@H](N)C3)nc12"
test_target = "CDK5/p25NCK (Homo sapiens, UniProt Q00535)"
observed_property = "IC50"
data_value = 238


P = CC1(Nc2nc(C#N)cc3cnc(N[C@H]4CCCNC4)cc23)CC1
Q = CC(C)Nc1nc(C#N)cc2cnc(N[C@H]3CC[C@@H](N)C3)cc12
R = CC(C)Nc1nc(C#N)cc2cnc(N[C@H]3CC[C@H](C)NC3)cc12
S = CC(C)Nc1nc(C#N)cc2cnc(N[C@@H]3CN4CCC3CC4)nc12
Provide the items ranked by increasing IC50. Output spec: labels arranged per the requested ranking.
P, R, Q, S
